Below is a list of entries, each paired with its recorded pIC50 value.
target: Prostacyclin receptor (Homo sapiens, UniProt P43119)
Sequence (P43119 whole entry): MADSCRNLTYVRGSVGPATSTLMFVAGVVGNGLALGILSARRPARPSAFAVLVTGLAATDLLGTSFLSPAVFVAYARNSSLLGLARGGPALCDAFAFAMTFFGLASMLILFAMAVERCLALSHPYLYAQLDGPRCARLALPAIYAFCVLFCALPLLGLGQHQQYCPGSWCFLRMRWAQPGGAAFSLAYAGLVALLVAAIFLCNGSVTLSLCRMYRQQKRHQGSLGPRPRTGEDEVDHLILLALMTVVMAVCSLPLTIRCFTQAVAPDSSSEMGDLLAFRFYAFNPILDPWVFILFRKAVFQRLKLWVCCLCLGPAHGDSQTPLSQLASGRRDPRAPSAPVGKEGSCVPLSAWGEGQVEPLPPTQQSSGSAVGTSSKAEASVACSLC
methodSummary: Antagonist activity at human IP receptor in HEL 92.1.7 cells assessed as inhibition of iloprost-induced cAMP production
Format: functional, cell-based
Expect pIC50 as a plain number equal to -log10 of the molar concentration.

• CNC(=O)c1ncoc1Cc1ccc(-c2cccc(NC(C)=O)c2)cc1 = 5.48

Entry CC(=O)Nc1cccc(-c2ccc(Cc3ocnc3C(=O)Nc3ccccc3)cc2)c1 ; pIC50 = 6.08

Sure, the documented pIC50 for CC(=O)Nc1cccc(-c2ccc(Cc3ocnc3C(=O)NCCc3ccccc3)cc2)c1 is 6.86

Noted for CC(=O)Nc1cccc(-c2ccc(Cc3ocnc3C(=O)N(C)C)cc2)c1 : its pIC50 reads 5.45

# pIC50 of CC(=O)Nc1cccc(-c2ccc(Cc3ocnc3C(=O)N[C@H]3C[C@@H]3c3ccccc3)cc2)c1 = 6.45

Item: CC(=O)Nc1cccc(-c2ccc(Cc3ocnc3C(=O)NCc3ccccc3)cc2)c1 | pIC50: 7.18

Memo: CC(=O)Nc1cccc(-c2ccc(Cc3ocnc3C(=O)NCCc3ccncc3)cc2)c1 , reported pIC50: 6.32

---

target: Cytochrome P450 1A2 (Homo sapiens, UniProt P05177)
Sequence (P05177 whole entry): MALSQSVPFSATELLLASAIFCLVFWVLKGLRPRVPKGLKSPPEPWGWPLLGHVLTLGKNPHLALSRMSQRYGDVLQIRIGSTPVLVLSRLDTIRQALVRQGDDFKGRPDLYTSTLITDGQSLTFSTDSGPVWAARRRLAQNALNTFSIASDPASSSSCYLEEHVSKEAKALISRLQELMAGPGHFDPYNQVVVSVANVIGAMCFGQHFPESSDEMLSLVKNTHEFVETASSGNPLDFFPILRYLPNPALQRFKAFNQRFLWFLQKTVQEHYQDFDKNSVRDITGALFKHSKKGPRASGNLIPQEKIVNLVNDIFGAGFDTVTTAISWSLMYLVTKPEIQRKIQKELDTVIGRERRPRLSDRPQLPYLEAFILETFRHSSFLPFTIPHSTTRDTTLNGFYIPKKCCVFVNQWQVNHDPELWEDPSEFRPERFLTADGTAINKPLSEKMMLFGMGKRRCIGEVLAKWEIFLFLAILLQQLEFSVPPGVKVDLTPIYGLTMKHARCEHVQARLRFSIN
endpoint: IC50

Entry CC(=O)Nc1cccc(-c2ccc(Cc3ocnc3C(=O)N[C@@H](Cc3ccccc3)C(=O)O)cc2)c1 — recorded IC50 = > 20 µM

---

methodSummary: Metabolic stability in human liver microsomes after 30 mins
Format: ADME, Microsome
conditions: read-out: Stability
endpoint: remaining at 0.5 h
Show the value, then the unit it is measured in.

• CC(=O)Nc1cccc(-c2ccc(Cc3ocnc3C(=O)NC[C@H](C)c3ccccc3)cc2)c1 = 12%
• CC(=O)Nc1cccc(-c2ccc(Cc3ocnc3C(=O)N[C@@H](Cc3ccccc3)C(=O)O)cc2)c1 = 100%

Then there is this compound:
Lab note: CC(=O)Nc1cccc(-c2ccc(Cc3ocnc3C(=O)NCc3ccccc3)cc2)c1 gave remaining at 0.5 h of 63%

---

In this section we review reported IC50 values for a set of compounds.
target: Prostacyclin receptor (Homo sapiens, UniProt P43119)
methodSummary: Displacement of [3H]iloprost from IP receptor in human platelet membrane
Assay type: cell membranes
Enter the number, and then the unit.

• CC(=O)Nc1cccc(-c2ccc(Cc3ocnc3C(=O)NCCc3cccnc3)cc2)c1 = 4.95 µM
• CC(=O)Nc1cccc(-c2ccc(Cc3ocnc3C(=O)N(C)CCc3ccccc3)cc2)c1 = 7.16 µM
• CC(=O)Nc1cccc(-c2ccc(Cc3ocnc3C(=O)NCCc3ccccc3)cc2)c1 = 0.721 µM
• CC(=O)Nc1cccc(-c2ccc(Cc3ocnc3C(=O)NC(C)c3ccccc3)cc2)c1 (racemic) = 1.23 µM

Recorded result, CC(=O)Nc1cccc(-c2ccc(Cc3ocnc3C(=O)Nc3ccccc3)cc2)c1 , IC50: 3.48 µM

Value source: ChEMBL document CHEMBL1148848
